Test system: MS2 coat protein
Assay: apparent KD of MS2 coat protein; higher = weaker reporter binding
Details: Eterna round: R107; input ligand: theophylline 2 mM
experimental.endpoint: apparent KD of MS2 coat protein (nM)

| query.sequence | target.or.system | recorded.number |
| --- | --- | --- |
| AAUAUAAUAGACUCGUUUUAGUAUUUGGAACGAGGACCGGUACGGCCGCCACUCGUGAUUUACAUGAGGAUCACCCAUGUUAGCA [JR_SSTryptoA_Sub003] | MS2 coat protein | 17.5 |
| AUGCGGUGCGGAAGGAGCGAGUUUGCCUAUUUACAUGAGGAUCACCCAUGUCCUAAUGGGACUCAGGUAGGUCGCCGUUGUCGCA [Same State Arginine B GF 29] | MS2 coat protein | 49.9 |
| AACAUGAGGAUCUUCCUUAAGUGAACUGAAGGAGCGCCAGAUAUGGCAGGUAGGUCGCAGCGAACAUGAGGAUCACCCAUGUUAA [Arg A Ex t3] | MS2 coat protein | 56 |

Origin of the recorded values: the supplement of paper PMC9170038
